Hello, the source for this data is ChEMBL document CHEMBL1909294, in case you need it.

Overview of reported HepSE_jaundice across a group of compounds:
System: Hepatotoxicity;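 also: Jaundice-related hepatic side-effect score drawn from the training data of the DILIps (drug-induced liver injury prediction system)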; also: call rule not given here
A bare number is all that is needed in reply.

COMPOUND	HepSE_jaundice
Cc1[nH]cnc1CN1CCc2c(c3ccccc3n2C)C1=O	1
CC(C)NCC(O)COc1cccc2ccccc12 (stereo unspecified)	0
Nc1cc(-c2ccncc2)c[nH]c1=O	1

## Input Using Hepatotoxicity as the test system, report measured HepSE_jaundice of Cn1nnc2c(C(N)=O)ncn2c1=O [TEMOZOLOMIDE] .
## Output 0

## Input Using Hepatotoxicity as the test system, report measured HepSE_jaundice of "O=P(O)(O)C(Cl)(Cl)P(=O)(O)O" .
## Output 0

## Input Using Hepatotoxicity as the test system, report measured HepSE_jaundice of "CC(C)(C)NC[C@H](O)COc1cccc2c1CCCC2=O" .
## Output 0

## Input Using Hepatotoxicity as the test system, report measured HepSE_jaundice of "Clc1ccc2c(c1)C(N1CCNCC1)=Nc1ccccc1O2" .
## Output 1

## Input Using Hepatotoxicity as the test system, report measured HepSE_jaundice of "Nc1nc(N)c2nc(-c3ccccc3)c(N)nc2n1" .
## Output 1
